molecular target: SYK(S550F)-NL (Homo sapiens, UniProt P43405, S550F); assay: NanoBRET cellular target engagement assay in intact live HEK293 cells, SYK(S550F)-NL; details: linearized Cheng-Prusoff analysis, y-intercept, tracer 8, single experiment; read-out: KD, app SYK(S550F)
RECORDED ENDPOINT: Kd (nM)
Numbers only here, please. The scale is nM.

Lookup: Form field: reported Kd of Cc1cc(Nc2nccc(C)n2)cc(-c2cnc([C@@]3(O)CC[C@H](C(=O)O)C(C)(C)C3)s2)c1 [MRL-SYKi]
Found: 46

* * *

molecular target: SYK(S550F)-NL (Homo sapiens, UniProt P43405, S550F); construct: host or cells: HEK293; experiment: NanoBRET cellular target engagement assay in intact live HEK293 cells, SYK(S550F)-NL; format: cell-based; settings: tracer titration, [Tracer] 7.8 nM; read-out: IC50, SYK(S550F)-NL + 8 + MRL-SYKi
RECORDED ENDPOINT: IC50 (nM)
Numbers only here, please. The scale is nM.

Lookup: Form field: reported IC50 of Cc1cc(Nc2nccc(C)n2)cc(-c2cnc([C@@]3(O)CC[C@H](C(=O)O)C(C)(C)C3)s2)c1
Found: 29

* * *

target: SYK(S550F)-NL (Homo sapiens, UniProt P43405, S550F); construct: host or cells: HEK293; experiment: NanoBRET cellular target engagement assay in intact live HEK293 cells, SYK(S550F)-NL; assay type: cell-based; conditions: intact cells, ± 10 μM MRL-SYKi, single experiment; read-out: cellular EC50 of the tracer, SYK(S550F)-NL
RECORDED ENDPOINT: EC50
// unit must come after the numeric part

Lookup: Form field: reported EC50 of Cc1cc(Nc2nccc(C)n2)cc(-c2cnc([C@@]3(O)CC[C@H](C(=O)NCCCNC(=O)CCc4ccc5n4[B-](F)(F)[N+]4=C(c6ccc[nH]6)C=CC4=C5)C(C)(C)C3)s2)c1
Found: 273 nM

* * *

target: SYK(S550Y)-NL (Homo sapiens, UniProt P43405, S550Y); construct: host or cells: HEK293; test: NanoBRET cellular target engagement assay in intact live HEK293 cells, SYK(S550Y)-NL; assay type: cell-based; conditions: tracer titration, [Tracer] 31.2 nM; read-out: IC50, SYK(S550Y)-NL + 8 + MRL-SYKi
RECORDED ENDPOINT: pIC50
Reminder that pIC50 means the negative base-10 logarithm of the concentration expressed in mol/L.

Lookup: Form field: reported pIC50 of Cc1cc(Nc2nccc(C)n2)cc(-c2cnc([C@@]3(O)CC[C@H](C(=O)O)C(C)(C)C3)s2)c1 [MRL-SYKi]
Found: 7.49

* * *

target: SYK(P342T) (Homo sapiens, UniProt P43405, P342T); construct: The full-length SYK GoF variants SYK(S550F) and SYK(P342T) along with SYK(WT) were purified from insect cells (Sf9); 6His (N, cleaved yes); GST (N, cleaved yes); experiment: PhosphoSens SOX peptide kinase activity assay, SYK(P342T); conditions: purified protein, 1 mM ATP
RECORDED ENDPOINT: IC50
// unit must come after the numeric part

Lookup: Missing value: IC50, SYK(P342T) (Homo sapiens, UniProt P43405, P342T), entry Cc1cc(Nc2nccc(C)n2)cc(-c2cnc([C@@]3(O)CC[C@H](C(=O)O)C(C)(C)C3)s2)c1 [MRL-SYKi] . Fill in?
Found: 95 nM
